Molecular target: Neuronal acetylcholine receptor subunit alpha-7 (Homo sapiens)
Sequence (P36544 whole entry): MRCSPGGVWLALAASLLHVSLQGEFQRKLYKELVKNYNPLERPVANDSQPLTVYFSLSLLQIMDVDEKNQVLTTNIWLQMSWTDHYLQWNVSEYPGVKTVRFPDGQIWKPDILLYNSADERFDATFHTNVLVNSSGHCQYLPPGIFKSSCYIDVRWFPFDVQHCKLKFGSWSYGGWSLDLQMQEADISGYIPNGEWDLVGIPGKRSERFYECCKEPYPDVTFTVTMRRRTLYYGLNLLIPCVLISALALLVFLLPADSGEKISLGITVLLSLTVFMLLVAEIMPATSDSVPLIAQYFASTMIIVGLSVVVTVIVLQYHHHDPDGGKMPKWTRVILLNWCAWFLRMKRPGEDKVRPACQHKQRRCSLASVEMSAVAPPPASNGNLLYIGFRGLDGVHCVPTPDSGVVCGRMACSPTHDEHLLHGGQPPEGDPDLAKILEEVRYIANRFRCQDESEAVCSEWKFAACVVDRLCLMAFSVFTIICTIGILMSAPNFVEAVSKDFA
Test: Antagonist activity at human alpha7 nAChR expressed in Xenopus laevis oocytes assessed as inhibition of Ach-induced current at 100 uM measured at holding potential of -90 mV by two electrode voltage-clamp assay relative to control
Type: cell-based
Conditions: Oocyte, filed as antagonist
ASSAY METRIC: inhibition (%)

Sample records with inhibition:
Look up and report measured inhibition for this entry: Fc1ccc(-c2ccc(C3=NOC4(CCN(Cc5ccccc5)CC4)N3)cc2)cc1
42.4

Look up and report measured inhibition for this entry: Nc1cccc(-c2ccc(C3=NOC4(CCN(Cc5ccccc5)CC4)N3)cc2)c1
93.5

P = COc1cc(-c2ccc(C3=NOC4(CCN(Cc5ccccc5)CC4)N3)cc2)ccn1
Q = Clc1ccc(-c2ccc(C3=NOC4(CCN(Cc5ccccc5)CC4)N3)cc2)cc1
Would you kindly point out which of P and Q has the smaller inhibition figure? Give the label under which the chosen entry appears.
Q
(Q: 52.8%, P: 89.9%)

---

Target: Neuronal acetylcholine receptor subunit alpha-7 (Homo sapiens)
Assay: Antagonist activity at human alpha7 nAChR expressed in Xenopus laevis oocytes assessed as inhibition of Ach-induced current at 100 uM measured at holding potential of -90 mV by two electrode voltage-clamp assay relative to control
Type: cell-based
Settings: Oocyte, filed as antagonist
ASSAY METRIC: inhibition (%)

Look up and report measured inhibition for this entry: CN1CCC2(CC1)NC(c1ccc(Br)nc1)=NO2
83.4

Look up and report measured inhibition for this entry: Nc1cccc(-c2ccc(C3=NOC4(CCN(Cc5ccccc5)CC4)N3)cn2)c1
87.2

Look up and report measured inhibition for this entry: c1ccc(CN2CCC3(CC2)NC(c2ccc(-c4cccnc4)cc2)=NO3)cc1
81.1

Look up and report measured inhibition for this entry: c1ccc(CN2CCC3(CC2)NC(C2CC2)=NO3)cc1
83.9

Look up and report measured inhibition for this entry: COc1cc(OC)cc(-c2ccc(C3=NOC4(CCN(Cc5ccccc5)CC4)N3)cc2)c1
73

Look up and report measured inhibition for this entry: c1ccc(CN2CCC3(CC2)NC(c2n[nH]c4ccccc24)=NO3)cc1
69.8

Look up and report measured inhibition for this entry: FC(F)(F)c1cccc(-c2ccc(C3=NOC4(CCN(Cc5ccccc5)CC4)N3)cc2)c1
67

Look up and report measured inhibition for this entry: CCOC(=O)N1CCC2(CC1)NC(c1ccc(Br)cc1)=NO2
58.1

Look up and report measured inhibition for this entry: COc1cccc(-c2ccc(C3=NOC4(CCN(C)CC4)N3)cc2)c1
93.2

Look up and report measured inhibition for this entry: c1ccc(CN2CCC3(CC2)NC(c2nccs2)=NO3)nc1
80

Look up and report measured inhibition for this entry: CN1CCC2(CC1)NC(c1nccs1)=NO2
87.4

---

Biological target: Neuronal acetylcholine receptor subunit alpha-7 (Homo sapiens)
Experiment: Antagonist activity at human alpha7 nAChR expressed in Xenopus laevis oocytes assessed as inhibition of Ach-induced current at 100 uM measured at holding potential of -90 mV by two electrode voltage-clamp assay relative to control
Type: cell-based
Conditions: Oocyte, filed as antagonist
ASSAY METRIC: inhibition (%)

Provide inhibition, tested on Neuronal acetylcholine receptor subunit alpha-7 (Homo sapiens), for c1ccc(CN2CCC3(CC2)NC(c2nccs2)=NO3)cc1 .
94.5

Provide inhibition, tested on Neuronal acetylcholine receptor subunit alpha-7 (Homo sapiens), for CN1CCC2(CC1)NC(c1ccccc1)=NO2 .
96.7

Provide inhibition, tested on Neuronal acetylcholine receptor subunit alpha-7 (Homo sapiens), for c1ccc(CN2CCC3(CC2)NC(c2ccc(-c4ccccc4)cc2)=NO3)cc1 .
71.4

Provide inhibition, tested on Neuronal acetylcholine receptor subunit alpha-7 (Homo sapiens), for Clc1ccc(C2=NOC3(CCN(Cc4ccccc4)CC3)N2)cc1 .
90.7

Provide inhibition, tested on Neuronal acetylcholine receptor subunit alpha-7 (Homo sapiens), for COc1cccc(-c2ccc(C3=NOC4(CCN(Cc5ccccc5)CC4)N3)cc2)c1 .
95.6

Provide inhibition, tested on Neuronal acetylcholine receptor subunit alpha-7 (Homo sapiens), for Brc1ccc(C2=NOC3(CCN(Cc4ccccc4)CC3)N2)cc1 .
91.5
